biological target: Histamine H2 receptor (Homo sapiens, UniProt P25021); assay: Displacement of [3H]tiotidine from human histamine H2 receptor; conditions: read-out: Ki
Sequence (P25021 whole entry): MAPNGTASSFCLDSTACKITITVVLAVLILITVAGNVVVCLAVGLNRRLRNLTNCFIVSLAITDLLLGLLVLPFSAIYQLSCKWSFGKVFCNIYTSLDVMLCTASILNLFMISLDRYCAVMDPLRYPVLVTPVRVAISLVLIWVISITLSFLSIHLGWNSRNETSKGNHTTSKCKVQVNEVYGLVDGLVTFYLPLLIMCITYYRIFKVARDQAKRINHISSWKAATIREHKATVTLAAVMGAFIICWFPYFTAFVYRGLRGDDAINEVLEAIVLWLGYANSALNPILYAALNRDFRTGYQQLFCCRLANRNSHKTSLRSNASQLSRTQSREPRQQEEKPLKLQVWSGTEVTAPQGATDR
Measure: Ki

compound_structure_string=CN[C@@H](C(=O)N(C)[C@H]1CC[C@@]2(C)C(=CC[C@H]3[C@@H]4CC[C@@H]5[C@H](C)N(C)C[C@@]54CC[C@@H]32)C1)C(C)C result="> 10 µM"

----------
test: Drug level in rat blood at 1 mg/kg, ip after 1 hr; assay type: ADME, organism-based; parameters: dose 1 mg/kg, route intraperitoneal; conditions: read-out: Drug uptake
Measure: concentration at 1 h (ng/mL)

compound="C[C@H]1[C@H]2CC[C@H]3[C@@H]4CC=C5C[C@@H](N(C)C)CC[C@]5(C)[C@H]4CC[C@]23CN1C [CONESSINE]" measured_number=444
